Tgt: recombinant human PAD2 (human, UniProt Q9Y2J8 1-665)
Sequence (Q9Y2J8 whole entry): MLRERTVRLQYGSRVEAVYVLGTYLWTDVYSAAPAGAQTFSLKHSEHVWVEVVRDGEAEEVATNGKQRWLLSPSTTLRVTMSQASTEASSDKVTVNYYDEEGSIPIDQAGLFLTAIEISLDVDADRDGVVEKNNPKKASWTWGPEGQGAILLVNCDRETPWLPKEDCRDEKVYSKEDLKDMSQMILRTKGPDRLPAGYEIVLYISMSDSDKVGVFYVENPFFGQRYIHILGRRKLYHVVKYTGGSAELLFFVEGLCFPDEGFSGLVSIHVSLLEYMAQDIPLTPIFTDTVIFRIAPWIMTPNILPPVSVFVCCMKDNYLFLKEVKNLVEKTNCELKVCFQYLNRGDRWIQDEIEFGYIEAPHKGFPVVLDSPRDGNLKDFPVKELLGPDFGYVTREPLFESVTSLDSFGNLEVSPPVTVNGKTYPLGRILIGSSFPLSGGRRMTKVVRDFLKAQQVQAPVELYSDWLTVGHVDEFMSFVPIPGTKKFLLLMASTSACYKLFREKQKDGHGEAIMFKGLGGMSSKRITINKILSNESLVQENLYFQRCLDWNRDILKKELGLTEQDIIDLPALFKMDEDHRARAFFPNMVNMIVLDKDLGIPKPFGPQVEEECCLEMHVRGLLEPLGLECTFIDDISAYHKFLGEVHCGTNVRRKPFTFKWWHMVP
Experimental Protocol: cell-based or functional assay
Numbered stars: 1 amine (or outer) side, 2 acyl side, 3 side chain; on linkers, the order of the positions; unused ones are H or OH. Square brackets hold non-standard residues; d marks the D form. Orn(CA) = ornithine chloroamidine, O(CA), N=C(CCl)NCCC[C@H](N[*:1])C(=O)[*:2]; Orn(fluoroacetimidoyl) = N=C(CF)NCCC[C@H](N)C(=O)O
Parameter: conversion of 0708-30 by PAD2, 100 µM inhibitor. Scope: all listed entries.
Test Readout: conversion of 0708-30 by PAD2, 100 µM inhibitor (%)

{"columns": ["Binder", "Observed"],
 "data": [
  ["Ac-FFDSHKFD[Orn(CA)]DFIYSD-NH2 (SMILES CC[C@H](C)[C@H](NC(=O)[C@H](Cc1ccccc1)NC(=O)[C@H](CC(=O)O)NC(=O)[C@H](CCCNC(=N)CCl)NC(=O)[C@H](CC(=O)O)NC(=O)[C@H](Cc1ccccc1)NC(=O)[C@H](CCCCN)NC(=O)[C@H](Cc1c[nH]cn1)NC(=O)[C@H](CO)NC(=O)[C@H](CC(=O)O)NC(=O)[C@H](Cc1ccccc1)NC(=O)[C@H](Cc1ccccc1)NC(C)=O)C(=O)N[C@@H](Cc1ccc(O)cc1)C(=O)N[C@@H](CO)C(=O)N[C@@H](CC(=O)O)C(N)=O) [0741-03CA]", 23],
  ["Ac-FFDSKHFD[Orn(fluoroacetimidoyl)]EWIWSD-NH2 (SMILES CC[C@H](C)[C@H](NC(=O)[C@H](Cc1c[nH]c2ccccc12)NC(=O)[C@H](CCC(=O)O)NC(=O)[C@H](CCCNC(=N)CF)NC(=O)[C@H](CC(=O)O)NC(=O)[C@H](Cc1ccccc1)NC(=O)[C@H](Cc1c[nH]cn1)NC(=O)[C@H](CCCCN)NC(=O)[C@H](CO)NC(=O)[C@H](CC(=O)O)NC(=O)[C@H](Cc1ccccc1)NC(=O)[C@H](Cc1ccccc1)NC(C)=O)C(=O)N[C@@H](Cc1c[nH]c2ccccc12)C(=O)N[C@@H](CO)C(=O)N[C@@H](CC(=O)O)C(N)=O) [0741-01FA]", 14]
]}
